Tested on: Saccharomyces cerevisiae BY4741 SeMeCo community
test: z-score of prototroph abundance vs DMSO median; higher = larger share of this subpopulation than in DMSO controls
condition: 10 µM; 24 h; SM minimal medium; subpopulation (auxotrophy): Prototroph
Structures can show the parent of a compound that is named as a salt.
Outcome label depends on z-score of prototroph abundance relative to 0.2: at/above gives t, below gives f.

Worked set:
O=C1CN(/N=C/c2ccc([N+](=O)[O-])o2)C(=O)N1 = f
NC(=O)[C@@H]1CC[C@@H]2CN1C(=O)N2OS(=O)(=O)O [Avibactam sodium] = f
COc1ccc(C2CNC(=O)C2)cc1OC1CCCC1 (stereo not drawn) [S- (+)-Rolipram] = t
CN(C)[C@@H](CCOc1cccc2ccccc12)c1ccccc1 [Dapoxetine HCl] = f
N[C@@H]1CN(c2c(F)cc3c(=O)c(C(=O)O)cn([C@@H]4C[C@@H]4F)c3c2Cl)CC12CC2 [Sitafloxacin Hydrate] = f
CCC[C@@H]1C[C@@H](C(=O)N[C@@H]([C@H]2O[C@H](SC)[C@H](O)[C@@H](O)[C@H]2O)[C@H](C)Cl)N(C)C1 [Clindamycin HCl] = f
CC[C@@H]1C(=O)OC[C@@H]1Cc1cncn1C [Pilocarpine HCl] = t
CN(C)C(=O)COC(=O)Cc1ccc(OC(=O)c2ccc(NC(=N)N)cc2)cc1 [Camostat Mesilate] = t
CCCCOc1cc(C(=O)OCCN(CC)CC)ccc1N [Oxybuprocaine HCl] = f
Cc1c(-c2ccc(O)cc2)n(Cc2ccc(OCCN3CCCCCC3)cc2)c2ccc(O)cc12 [Bazedoxifene HCl] = f

Query block: Hi team, for CCOC(=O)c1ccc(N)cc1 [Benzocaine] , is the recorded z-score of prototroph abundance at or above 0.2?
Result block: t

Query block: Hi team, for O=C(O[C@@H]1C[C@@H]2C[C@H]3C[C@H](C1)N2CC3=O)c1c[nH]c2ccccc12 [Dolasetron Mesylate] , is the recorded z-score of prototroph abundance at or above 0.2?
Result block: f

Query block: Hi team, for COc1ccc(CC2c3cc(OC)c(OC)cc3CC[N+]2(C)CCC(=O)OCCCCCOC(=O)CC[N+]2(C)CCc3cc(OC)c(OC)cc3C2Cc2ccc(OC)c(OC)c2)cc1OC (stereo not given) [Atracurium Besylate] , is the recorded z-score of prototroph abundance at or above 0.2?
Result block: f

Query block: Hi team, for CN(CCOc1ccc(NS(C)(=O)=O)cc1)CCc1ccc(NS(C)(=O)=O)cc1 [Dofetilide] , is the recorded z-score of prototroph abundance at or above 0.2?
Result block: t

Query block: Hi team, for "CC[C@@H]1/C=C(\C)C[C@H](C)C[C@H](OC)[C@H]2O[C@@](O)(C(=O)C(=O)N3CCCC[C@H]3C(=O)O[C@H](/C(C)=C/[C@@H]3CC[C@@H](O)[C@H](OC)C3)[C@H](C)[C@@H](O)CC1=O)[C@H](C)C[C@@H]2OC" , is the recorded z-score of prototroph abundance at or above 0.2?
Result block: f
